Overview of recorded Kd for various binders
TARGET OR SYSTEM: T1, human insulin receptor (HIR) (human, UniProt P06213 28-1382, limits assumed)
T1 construct: Detergent-solubilised receptor; The natural receptor is an alpha2-beta2 heterotetramer cleaved from one precursor
TEST NAME: 125I-insulin displacement, solubilised HIR
Non-standard residues stand in square brackets, D forms with d. No end group written: not given here. Ac6c = NC1(C(=O)O)CCCCC1; Aib = CC(C)(N)C(=O)O
Express your answer in µM, writing the number without its unit.

BINDER	PROPERTY LABEL	RESULT
SGPFYEE[Ac6c]ELLW[Aib]G (printed: SGPFYEE-Acy-ELLW-Aib-G) [S303]	Kd	5.7
S362 (N-terminal Lig′ coupled to linker 24, dimer, N-N) peptide 1: XGSLDESFYDWFERQLGKK peptide 2: XGSLDESFYDWFERQLGKK	Kd	0.11

Problem: Please give the documented Kd of LDESFYDWFERQLG [S388]
Solution: 0.34

Problem: Consider the binder CGFHENFYDWFVRQVSKK (also called 3171 (so in the source)) [S171] . State its measured Kd.
Solution: 2.9

Reference source for all entries: patent US20030236190A1
